# cond: human
assay endpoint: Hepatotoxicity (animal toxicity known)

CN(N=O)C(=O)N[C@@H](C=O)[C@@H](O)[C@H](O)[C@H](O)CO [STREPTOZOCIN]	yes
Cc1ccc(S(=O)(=O)NC(=O)NC2CCCCC2)cc1N [METAHEXAMIDE]	yes
CN(C)[C@@H]1C(O)=C(C(=O)NCN2CCCC2)C(=O)[C@@]2(O)C(O)=C3C(=O)c4c(O)cccc4[C@@](C)(O)[C@H]3C[C@@H]12 [ROLITETRACYCLINE]	yes
O=P1(N(CCCl)CCCl)NCCCO1 (centres undefined) [CYCLOPHOSPHAMIDE ANHYDROUS]	yes

* * *

# experiment notes: Proposed mechanism(s) of liver damage. [column 'MEC' in source]
# cond: human
assay endpoint: Hepatotoxicity (mechanism)

Below, each entry is followed by its recorded Hepatotoxicity (mechanism) result.
CC[C@H]1OC(=O)[C@H](C)[C@@H](O[C@H]2C[C@@](C)(OC)[C@@H](O)[C@H](C)O2)[C@H](C)[C@@H](O[C@@H]2O[C@H](C)C[C@H](N(C)C)[C@H]2O)[C@](C)(O)C[C@@H](C)CN(C)[C@H](C)[C@@H](O)[C@]1(C)O	Allergic
Cc1cccc(C)c1NC(=O)C(C)N (stereo not drawn) [TOCAINIDE]	Allergic
NC(=O)NO [HYDROXYUREA]	Allergic
CCC(COC(=O)c1cc(OC)c(OC)c(OC)c1)(c1ccccc1)N(C)C (stereo not drawn)	Allergic

Query :: Return reported Hepatotoxicity (mechanism); argument: CCCCCCCCCCCCCCCCSCC(COC)COP(=O)([O-])OCC[N+](C)(C)C (stereo not drawn)
Result :: Dose-dependant

Query :: Field entry: CCC(C)n1ncn(-c2ccc(N3CCN(c4ccc(OCC5COC(Cn6cncn6)(c6ccc(Cl)cc6Cl)O5)cc4)CC3)cc2)c1=O (stereo not drawn)
Result :: Dose-dependant

* * *

# experiment notes: Highest frequency of acute liver toxicity observed during clinical trials, expressed as a percentage. [column '% AIGUE' in source]
# cond: human
Threshold 0.9%: Hepatotoxicity (acute) strictly smaller gives YES, otherwise NO.

Sample answers from the record:
CS(=O)(=O)OCCCCOS(C)(=O)=O	NO
CC/C=C(\C(=O)N[C@@H]1C(=O)N2C(C(=O)OCOC(=O)C(C)(C)C)=C(COC(N)=O)CS[C@H]12)c1csc(N)n1	YES
COC(=O)C1=C(C)NC(C)=C(C(=O)OC)C1c1ccccc1[N+](=O)[O-]	NO
CN[C@@H]1[C@@H](O)[C@@H](O[C@@H]2[C@@H](O)[C@H](O[C@H]3OC(CN)=CC[C@H]3N)[C@@H](N)C[C@H]2N)OC[C@]1(C)O	YES

Query :: Strictly below 0.9%: is that where Hepatotoxicity (acute) of CCCC(C)C1(CC)C(=O)NC(=S)NC1=O (centres undefined) sits?
Result :: YES

Query :: Field entry: Cc1ccc(S(=O)(=O)NC(=O)NC2CCCCC2)cc1N [METAHEXAMIDE]
Result :: NO

Query :: Field entry: "CCN1CCN(C(=O)N[C@@H](C(=O)N[C@]2(OC)C(=O)N3C(C(=O)O)=C(CSc4nnnn4C)CS[C@@H]32)[C@H](C)O)C(=O)C1=O"
Result :: YES

Query :: Field entry: COc1cc(/C=C/C(=O)O)ccc1O [FERULATE]
Result :: YES
